# System: diaphorase
# run.description: Formation of formazan dyes: NADH, diaphorase and malate (TABLE 8)
# Format: biochemical, Clostridium kluyveri
# condition.notes: NADH, diaphorase and malate; 3 h
reported.property: Formation of formazan dyes, absorbance, Means 3 h
// no unit, no text: just the number

COc1cc(-c2ccc(-[n+]3nc(-c4ccc(C(=O)N(CCS(=O)(=O)[O-])CCS(=O)(=O)[O-])cc4)nn3-c3nc4ccccc4s3)c(OC)c2)ccc1-[n+]1nc(-c2ccc(C(=O)N(CCS(=O)(=O)[O-])CCS(=O)(=O)[O-])cc2)nn1-c1nc2ccccc2s1.[Na+].[Na+]    2.41

Ask | Recorded Formation of formazan dyes, absorbance, Means 3 h of COc1cc([N+](=O)[O-])ccc1-[n+]1nc(-c2ccc(S(=O)(=O)[O-])cc2S(=O)(=O)[O-])nn1-c1ccc([N+](=O)[O-])cc1.[Na+] , please.
Reply | 3.53

###

Collected Formation of formazan dyes, absorbance, Means 6 h values appear next to each entry.
# System: oral lavage
# run.description: Formation of formazan dyes: oral lavage and diaphorase, not malate (TABLE 11)
# Type: biochemical, human
# condition.notes: oral lavage and diaphorase, not malate; 6 h
// no unit, no text: just the number

Reference set, count: 2
COc1cc([N+](=O)[O-])c(S(=O)(=O)[O-])cc1-n1nc(C(=O)Nc2ccccc2)n[n+]1-c1cc(S(=O)(=O)O)c([N+](=O)[O-])cc1OC    1.24
O=[N+]([O-])c1ccc(-[n+]2nc(-c3ccc(S(=O)(=O)[O-])cc3S(=O)(=O)[O-])nn2-c2ccc(I)cc2)cc1.[Na+]    1.42

Ask | Recorded Formation of formazan dyes, absorbance, Means 6 h of COc1cc([N+](=O)[O-])ccc1-[n+]1nc(-c2ccc(S(=O)(=O)[O-])cc2S(=O)(=O)[O-])nn1-c1ccc([N+](=O)[O-])cc1.[Na+] , please.
Reply | 0.88

Ask | Field entry: Cc1nc(-[n+]2nc(-c3cccc(OCC(=O)O)c3)nn2-c2ccc(S(=O)(=O)[O-])cc2)sc1C
Reply | 1.18

Ask | Field entry: COc1cc(-c2ccc(-[n+]3nc(-c4ccc(C(=O)N(CCS(=O)(=O)[O-])CCS(=O)(=O)[O-])cc4)nn3-c3nc4ccccc4s3)c(OC)c2)ccc1-[n+]1nc(-c2ccc(C(=O)N(CCS(=O)(=O)[O-])CCS(=O)(=O)[O-])cc2)nn1-c1nc2ccccc2s1.[Na+].[Na+]
Reply | 0.83

###

# Tested on: diaphorase
# run.description: Formation of formazan dyes: only diaphorase, not malate (TABLE 13)
# Format: biochemical, Clostridium kluyveri
# condition.notes: 4 h, mean of three experiments
Collected Absorbance, formation of formazan dyes (Means) values appear next to each entry.
// no unit, no text: just the number

COc1cc(-c2ccc(-[n+]3nc(-c4ccc(C(=O)N(CCS(=O)(=O)[O-])CCS(=O)(=O)[O-])cc4)nn3-c3nc4ccccc4s3)c(OC)c2)ccc1-[n+]1nc(-c2ccc(C(=O)N(CCS(=O)(=O)[O-])CCS(=O)(=O)[O-])cc2)nn1-c1nc2ccccc2s1.[Na+].[Na+]    0.32
COc1cc([N+](=O)[O-])c(S(=O)(=O)[O-])cc1-n1nc(C(=O)Nc2ccccc2)n[n+]1-c1cc(S(=O)(=O)O)c([N+](=O)[O-])cc1OC    0.54
Cc1nc(-[n+]2nc(-c3cccc(OCC(=O)O)c3)nn2-c2ccc(S(=O)(=O)[O-])cc2)sc1C    0.17
COc1cc([N+](=O)[O-])ccc1-[n+]1nc(-c2ccc(S(=O)(=O)[O-])cc2S(=O)(=O)[O-])nn1-c1ccc([N+](=O)[O-])cc1.[Na+]    0.43

Ask | Short answer please: Absorbance, formation of formazan dyes (Means), diaphorase, entry O=[N+]([O-])c1ccc(-[n+]2nc(-c3ccc(S(=O)(=O)[O-])cc3S(=O)(=O)[O-])nn2-c2ccc(I)cc2)cc1.[Na+]
Reply | 0.70
